# Tested on: ACHN renal
# Assay explanation: NCI-60 one-dose screen, 48 h
# Condition details: 10 µM unless noted
This is part of a sample that, as a whole, favours compounds with a hit. Of some 83,000 tested, about 20% had one in any assay. Activity calls are given as the source filed them. The calls were made as follows: active = growth percent below 10; inactive = the rest.
Possible outcomes: Y for active, N for inactive

[
  {
    "Compound": "COc1ccc(NC(=O)[C@H](C)N)cc1C(=O)Nc1cccc(C2CC(=O)c3c(cc(OC)c(OC)c3OC)O2)c1 (some centres not stated)",
    "Category label": "N"
  },
  {
    "Compound": "COc1cc2oc(-c3cccc(C(=O)Nc4ccc(Cl)cc4)c3)cc(=O)c2c(OCCNC(=O)[C@H](CO)NC(=O)OC(C)(C)C)c1OC",
    "Category label": "N"
  },
  {
    "Compound": "COc1ccc2[nH]cc(-c3cc(N)n4nc(-c5cn(C)c6ccccc56)cc4n3)c2c1",
    "Category label": "Y"
  },
  {
    "Compound": "O=C(Cn1c(/C=C/c2ccccc2)nc2ccccc2c1=O)Nc1ccc(Cl)cc1",
    "Category label": "Y"
  },
  {
    "Compound": "COc1ccc2cc([C@H](C)C(=O)N/N=C/c3ccc(Br)cc3)ccc2c1",
    "Category label": "N"
  },
  {
    "Compound": "Cc1ccc(C(SCCNCc2cc(N(C)C)ccn2)(c2ccccc2)c2ccccc2)cc1",
    "Category label": "Y"
  },
  {
    "Compound": "CN(C)c1ccnc(CNCCSC2(c3ccccc3)c3ccccc3C=Cc3ccccc32)c1",
    "Category label": "N"
  }
]

* * *

// growth lookup, one value per entry
# Tested on: EKVX NSCLC
# Assay explanation: NCI-60 one-dose screen, 48 h (100 = growth as untreated, 0 = no growth, -100 = all killed)
# Condition details: 10 µM unless noted
This is part of a sample that, as a whole, favours compounds with a hit. Of some 83,000 tested, about 20% had one in any assay.
Quantity name: growth (%)

[
  {
    "Compound": "Cn1cc(-c2cc(N)n3nc(-c4c[nH]c5ccccc45)cc3n2)c2cccnc21",
    "System tested": "EKVX NSCLC",
    "Quantitative readout": 85.6
  },
  {
    "Compound": "C/C(=N\\Nc1ccc(S(N)(=O)=O)cc1)c1ccc(N=Nc2c(Nc3ccccc3)[nH][nH]c2=O)cc1",
    "System tested": "EKVX NSCLC",
    "Quantitative readout": 62.5
  },
  {
    "Compound": "O=C(O)c1cccc(-c2ccc(/C=N/NC(=O)c3[nH]c4ccc(Br)cc4c3-c3ccccc3)s2)c1",
    "System tested": "EKVX NSCLC",
    "Quantitative readout": 35.2
  },
  {
    "Compound": "COc1ccc(-c2nc3ccc(C(=O)NN4C(=O)c5ccc([N+](=O)[O-])cc5C4=O)cc3[nH]2)cc1",
    "System tested": "EKVX NSCLC",
    "Quantitative readout": 90.7
  },
  {
    "Compound": "Cc1ccc(-c2nc(Nc3ccccc3S(N)(=O)=O)c3ccccc3n2)cc1",
    "System tested": "EKVX NSCLC",
    "Quantitative readout": 74.1
  },
  {
    "Compound": "N#Cc1c(-c2ccccc2Cl)cc(-c2c[nH]c3ccccc23)[nH]c1=O",
    "System tested": "EKVX NSCLC",
    "Quantitative readout": 68.1
  },
  {
    "Compound": "CSc1ccc(C(=O)Nc2ccc3nn(/C(C#N)=C/c4ccccn4)nc3c2)cc1",
    "System tested": "EKVX NSCLC",
    "Quantitative readout": -96.3
  },
  {
    "Compound": "COc1ccc(-c2c(Nn3cnnn3)no[n+]2[O-])cc1",
    "System tested": "EKVX NSCLC",
    "Quantitative readout": 53.7
  },
  {
    "Compound": "C#C[C@]1(O)CC[C@H]2[C@@H]3CC=C4c5sc(-c6ccc(O)c(O)c6)nc5CC[C@]4(C)[C@H]3CC[C@@]21C",
    "System tested": "EKVX NSCLC",
    "Quantitative readout": -74.4
  },
  {
    "Compound": "COc1ccc(C(=O)/C=C/c2ccc(Cl)c(Cl)c2)cc1S(N)(=O)=O",
    "System tested": "EKVX NSCLC",
    "Quantitative readout": 24.1
  },
  {
    "Compound": "CC1(C)CC[C@]2(C(=O)Nc3ccc(Br)cc3)CC[C@]3(C)C(=CCC4[C@@]5(C)C[C@@H](O)[C@H](O)[C@@](C)(CO)C5CC[C@]43C)C2C1 (some centres not stated)",
    "System tested": "EKVX NSCLC",
    "Quantitative readout": 15.5
  },
  {
    "Compound": "NS(=O)(=O)c1ccc(N=Nc2c(O)n(CC(=O)Nc3ccccc3)c3ccccc23)cc1",
    "System tested": "EKVX NSCLC",
    "Quantitative readout": 38.4
  }
]

* * *

# System: HCC-2998 colon
# Assay explanation: NCI-60 one-dose screen, 48 h (100 = growth as untreated, 0 = no growth, -100 = all killed)
# Condition details: 10 µM unless noted
This is part of a sample that, as a whole, favours compounds with a hit. Of some 83,000 tested, about 20% had one in any assay.

[
  {
    "Molecule": "COc1ccc(NC(=O)[C@H](C)N)cc1C(=O)Nc1cccc(C2CC(=O)c3c(cc(OC)c(OC)c3OC)O2)c1 (stereo partly specified)",
    "Unit label": "%",
    "growth": 109
  },
  {
    "Molecule": "Cc1ccc(-c2nnc3ccc(N/N=C/c4ccccc4)nn23)cc1",
    "Unit label": "%",
    "growth": 111
  },
  {
    "Molecule": "Cc1ccc([C@H]2C(C(=O)c3ccc(Cl)cc3)C3(N[C@@H]2c2ccccc2)C(=O)Nc2ccc(Cl)cc23)cc1 (stereo partly specified)",
    "Unit label": "%",
    "growth": 18.8
  },
  {
    "Molecule": "O=C(NNc1nc2cc(F)ccc2n2c(C(=O)N3CCN(C4CC4)CC3)ccc12)c1ncccn1",
    "Unit label": "%",
    "growth": 63.8
  },
  {
    "Molecule": "COc1ccc2oc3c4[nH]c5ccccc5c4c4c(c3c2c1)C(=O)N(C(=O)OC(C)(C)C)C4=O",
    "Unit label": "%",
    "growth": 23.2
  },
  {
    "Molecule": "COC(OC)C1=C(C)OC(N)=C(C#N)C12C(=O)Nc1ccccc12 (stereo unspecified)",
    "Unit label": "%",
    "growth": 106
  }
]

* * *

# Tested on: NCI/ADR-RES ovarian
# Assay explanation: NCI-60 one-dose screen, 48 h (100 = growth as untreated, 0 = no growth, -100 = all killed)
# Condition details: 10 µM unless noted
The panel holds about 83,000 compounds, 20% with a hit somewhere; the sample as a whole holds those more often.
// growth lookup, one value per entry

[
  {
    "Compound": "CN(C)CCCNC(=O)c1cc(NC(=O)c2cc(NC(=O)c3ccc(/C=C/c4ccccc4)cc3)cn2C)cn1C",
    "growth (%)": 91.6
  },
  {
    "Compound": "O=C(/C=C/c1ccc(O)c(O)c1)NC1CCOC1O (centres undefined)",
    "growth (%)": 105
  },
  {
    "Compound": "S=C(Nc1ccc(OCc2nc3ccccc3[nH]2)cc1)NC1CCCCC1",
    "growth (%)": 106
  },
  {
    "Compound": "C=C1CCC2C3(C)COC(c4ccco4)OC3CCC2(C)C1CC(Sc1ccccc1)C1=CCOC1=O (centres undefined)",
    "growth (%)": -17.6
  },
  {
    "Compound": "O=C(Cn1c2c(sc1=O)[C@H]1[C@@H](O)[C@@H](O)[C@H](O)[C@@H]1CS2)N1CCOCC1",
    "growth (%)": 104
  },
  {
    "Compound": "COc1ccc2oc3c4[nH]c5ccccc5c4c4c(c3c2c1)C(=O)N(C(=O)OC(C)(C)C)C4=O",
    "growth (%)": -17.9
  },
  {
    "Compound": "Cc1cc(C)cc(C(=O)Nc2cccc(-c3cn(-c4ccc(S(N)(=O)=O)cc4)nn3)c2)c1",
    "growth (%)": 55.9
  },
  {
    "Compound": "COc1cc2c(c(OC)c1OC)C(=O)CC(c1cccc(NC(=O)c3cc([N+](=O)[O-])ccc3Cl)c1)O2 (centres undefined)",
    "growth (%)": 15
  },
  {
    "Compound": "CNC(=O)c1cc(Oc2ccc3nc(NC(=O)Nc4cccc(OC(F)(F)F)c4)sc3c2)ccn1",
    "growth (%)": -2.64
  }
]
